Sourced from the nanobody polyreactivity screen of Harvey et al. (2022)

Method Summary: yeast display, Sf9 membrane polyspecificity reagent, FACS + sequencing; frameworks hold sequencing errors

- Sequence Content: "QVQLVESGGGLVQAGGSLRLSCDASGNIFGLNAMGWYRQAPGKERELVSAISSGGSTNYADSVKGRFTISRDNAKNTVYLQMNSLKPEDTAVYYCAVQGSRYSYCYGYRFRTMDYWGQVTQVTVSS"
  polyreactivity (PSR sort gate): "high polyreactivity"
- Sequence Content: "QVQLVESGGGLVQAGGSLRLSCAASGITFSKYAMGWYRPAPGKERELVAAISSTASTNYADSVKGRFTISRDNAKHTVYFQMNSLKPEDTAVYYCNAGLFFQWFWTYDDYWGQGTQVTVSS"
  polyreactivity (PSR sort gate): "low polyreactivity"
- Sequence Content: "QVQLVESGGGLVQAGGSLRLSCAASGRIFYRYAMGWYRQAPGKERELVAAITGSGGSTYYADSVKGRFTISRDNAKNTVYLQMNSLKPEDTAVYYCNAVYARYGSQGYEYWGQGTQVTVSS"
  polyreactivity (PSR sort gate): "high polyreactivity"
- Sequence Content: "QVQLVESGGGLVQAGGSLRLSCAASGLIFIFNTMGWYRQAPGKERELVAAISWSGTSTYYADSVKGRFTISRDNANMTVYLLMNSLKPVDTAVYFCNDDLYWFRGFDYWGQGTQVTVSS"
  polyreactivity (PSR sort gate): "high polyreactivity"
- Sequence Content: "QVQLVESGGGLVQAGGSLRLSCAASGRTDVAKGMGRYRQAPGKEKEMVAAINDGDVTYYADSVKGRFTISRDNAKNTVYLQMNSLKPEDTAVYYCAADIIYGYEVYTYTSDYWGQGTQVTVSS"
  polyreactivity (PSR sort gate): "low polyreactivity"
